Attribution: patent US7329737

molecular target: T1, hK1 (human tissue kallikrein 1), recombinant (human, UniProt P06870 25-262); assay: SPR
T1 construct: Expressed in P. pastoris from KLK1 cDNA and purified; enzymatically active; also called KLK1; Recombinant (Pichia) Kallikrein
Readings of kon for the listed binders

{"Binder": "M0132-D02 (Fab, V domains shown) VH: EVQLLESGGGLVQPGGSLRLSCAASGFTFSHYPMDWVRQAPGKGLEWVSYIGPSGGSTRYADSVKGRFTISRDNSKNTLYLQMNSLRAEDTAVYYCARHVPPGTWGQGTLVTVSS VL: AQSALTQPRSVSGSPGQSVTISCTGTSSDVNYVSWYQQHPGKAPKLMIYAVTKRPSGVPDRFSGSKSGNTASLTVSGLQAEDEADYYCSSYAGSNNLVFGGGTKLTVLG", "kon": "717000 M⁻¹ s⁻¹"}
{"Binder": "M0097-F08 (Fab, V domains shown) VH: EVQLLESGGGLVQPGGSLRLSCAASGFTFSNYPMVWVRQAPGKGLEWVSVIGPSGGKTKYADSVKGRFTISRDNSKNTLYLQMNSLRAEDTAVYYCARVGVWYGMDVWGQGTTVTVSS VL: DIQMTQSPSTLSASVGDRVTISCRASQGIGTHLNWYQQKLGNVPKLLIYAASGLQSGVPPRFSGSGSGTDFTLTISSLHPEDSATYFCQQSYSVPRTFGQGTKVEIKR", "kon": "353000 M⁻¹ s⁻¹"}
{"Binder": "M0096-D03 (Fab, V domains shown) VH: EVQLLESGGGLVQPGGSLRLSCAASGFTFSHYWMVWVRQAPGKGLEWVSWIGPSGGGTVYADSVKGRFTISRDNSKNTLYLQMNSLRAEDTAVYYCARGNGGFDSWGRGTLVTVSS VL: AQSELTQPRSVSGSPGQSVTISCTGTTRDVGAYKYVSWYQQYPGKAPKLMLSDVSKRPSGVPDRFSGSKSGNTASLTISGLQSEDEADYYCCSFAGSYTWIFGGGTKVTVLG", "kon": "337000 M⁻¹ s⁻¹"}
{"Binder": "M0092-G06 (Fab, V domains shown) VH: EVQLLESGGGLVQPGGSLRLSCAASGFTFSHYGMNWVRQAPGKGLEWVSSIWSSGGYTTYADSVKGRFTISRDNSKNTLYLQMNSLRAEDTAVYYCARVGIWYSMDVWGQGTTVTVSS VL: AQSELTQPRSVSGSPGQSVTISCTGTSGEVANYNYVSWYHQDPGLVPKLKIYDVSRRPSGVPDRFSGAKSGDTASLTISGLQAEDEGDYYCASYVGNDKLVFGGGTKLTVLG", "kon": "215000 M⁻¹ s⁻¹"}
{"Binder": "M0126-H09 (Fab, V domains shown) VH: EVQLLESGGGLVQPGGSLRLSCAASGFTFSNYTMMWVRQAPGKGLEWVSGIYPSGGQTAYADSVKGRFTISRDNSKNTLYLQMNSLRAEDTAVYYCARGGSWYAFDIWGQGTMVTVSS VL: AQSVLTQDPAVSVALGQTVRFTCQGDSLRNYHPSWYQQKPRQAPVLVMFGRNNRPSGIPDRFSGSTSGGTASLTITATQADDEADYFCSSRDGSGNFLFGGGTKLTVLG", "kon": "1.8e+07 M⁻¹ s⁻¹"}
